# assayed target: his-labeled human IL-13 (immunogen A) (human) (UniProt P35225)
# experimental protocol: FACS blocking, biotin-IL-13 on IL-13Ra1/IL-4Ra HEK293 cells; antibody at 1.33 nM
Item-by-item account of mean fluorescence intensity
result type: mean fluorescence intensity

>  <binder>
c29D9H8 (mouse-human chimeric IL-13 antibody) (antibody, V domains shown) VH: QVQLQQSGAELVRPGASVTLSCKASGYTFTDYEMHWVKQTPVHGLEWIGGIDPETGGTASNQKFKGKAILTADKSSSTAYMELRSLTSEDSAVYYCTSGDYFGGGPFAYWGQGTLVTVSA VL: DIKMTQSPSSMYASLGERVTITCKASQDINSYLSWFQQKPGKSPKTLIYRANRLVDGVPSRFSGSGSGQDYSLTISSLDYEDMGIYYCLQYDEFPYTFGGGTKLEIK

>  <result type>
mean fluorescence intensity

>  <val>
45.7

$$$$
>  <binder>
28A2E11 (lead antibody, mouse hybridoma) (antibody, V domains shown, Mouse monoclonal antibody purified from hybridoma supernatant on Protein G) VH: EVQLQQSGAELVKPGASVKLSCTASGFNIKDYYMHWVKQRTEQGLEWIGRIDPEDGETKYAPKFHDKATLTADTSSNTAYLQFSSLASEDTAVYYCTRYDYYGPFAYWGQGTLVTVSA VL: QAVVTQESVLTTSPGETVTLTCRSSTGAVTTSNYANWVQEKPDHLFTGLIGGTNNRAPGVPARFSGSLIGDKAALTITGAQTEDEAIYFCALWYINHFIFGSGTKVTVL

>  <result type>
mean fluorescence intensity

>  <val>
39.6

$$$$
>  <binder>
c28A2E11 (mouse-human chimeric IL-13 antibody) (antibody, V domains shown) VH: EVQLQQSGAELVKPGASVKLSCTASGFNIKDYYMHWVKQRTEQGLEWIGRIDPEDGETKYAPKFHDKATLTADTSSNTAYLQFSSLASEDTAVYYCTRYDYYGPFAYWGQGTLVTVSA VL: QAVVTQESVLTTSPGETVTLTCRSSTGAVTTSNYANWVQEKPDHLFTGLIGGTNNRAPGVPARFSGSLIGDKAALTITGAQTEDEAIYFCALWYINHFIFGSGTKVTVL

>  <result type>
mean fluorescence intensity

>  <val>
76.6

$$$$
>  <binder>
70F10A10 (lead antibody, mouse hybridoma) (antibody, V domains shown) VH: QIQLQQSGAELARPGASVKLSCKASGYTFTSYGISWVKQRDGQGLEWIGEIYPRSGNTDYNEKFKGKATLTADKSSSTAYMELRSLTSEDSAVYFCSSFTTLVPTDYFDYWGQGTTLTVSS VL: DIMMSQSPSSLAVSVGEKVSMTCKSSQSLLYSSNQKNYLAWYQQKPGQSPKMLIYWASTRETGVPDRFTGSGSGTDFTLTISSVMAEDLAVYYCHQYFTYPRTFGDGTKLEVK

>  <result type>
mean fluorescence intensity

>  <val>
30.7

$$$$
